Cited source for all entries: patent US10392368B2

I'd appreciate it if you could supply Ki values for the items below.
Experimental target: JAK1 (Homo sapiens, UniProt P23458)
Construct: GST; purchased Life Technologies
Sequence (P23458 whole entry): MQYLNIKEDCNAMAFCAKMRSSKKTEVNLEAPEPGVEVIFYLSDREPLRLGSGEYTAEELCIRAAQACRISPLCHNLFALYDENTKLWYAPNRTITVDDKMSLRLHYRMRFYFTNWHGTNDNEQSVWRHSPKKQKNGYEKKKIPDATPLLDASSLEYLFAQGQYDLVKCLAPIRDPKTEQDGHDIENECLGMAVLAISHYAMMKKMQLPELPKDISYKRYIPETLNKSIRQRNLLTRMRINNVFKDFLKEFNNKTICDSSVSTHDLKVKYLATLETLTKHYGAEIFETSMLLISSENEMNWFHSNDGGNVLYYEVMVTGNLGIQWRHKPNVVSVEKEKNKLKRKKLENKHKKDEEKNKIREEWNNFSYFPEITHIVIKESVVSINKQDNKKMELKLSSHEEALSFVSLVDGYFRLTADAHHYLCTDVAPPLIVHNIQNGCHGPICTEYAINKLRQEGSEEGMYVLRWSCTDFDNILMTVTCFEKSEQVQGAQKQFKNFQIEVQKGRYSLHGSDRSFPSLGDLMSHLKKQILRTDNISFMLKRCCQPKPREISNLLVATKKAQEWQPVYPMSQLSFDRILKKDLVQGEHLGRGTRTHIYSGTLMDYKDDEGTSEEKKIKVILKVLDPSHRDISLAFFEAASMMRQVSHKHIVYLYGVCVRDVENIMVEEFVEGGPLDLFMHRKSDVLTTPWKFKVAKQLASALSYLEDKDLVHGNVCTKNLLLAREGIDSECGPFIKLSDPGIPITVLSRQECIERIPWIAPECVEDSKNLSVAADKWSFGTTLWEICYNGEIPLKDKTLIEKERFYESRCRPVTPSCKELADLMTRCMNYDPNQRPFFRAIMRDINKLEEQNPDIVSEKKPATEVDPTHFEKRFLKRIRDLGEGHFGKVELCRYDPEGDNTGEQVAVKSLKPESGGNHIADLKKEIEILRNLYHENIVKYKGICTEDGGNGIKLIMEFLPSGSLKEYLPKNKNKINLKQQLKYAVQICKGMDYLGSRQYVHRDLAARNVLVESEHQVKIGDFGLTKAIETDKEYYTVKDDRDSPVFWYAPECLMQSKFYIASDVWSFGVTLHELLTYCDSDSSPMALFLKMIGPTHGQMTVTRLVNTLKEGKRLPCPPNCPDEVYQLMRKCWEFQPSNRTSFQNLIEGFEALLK
Assay explanation: Biochemical JAK1 kinase assay (LanthaScreen)
Condition context: read-out: JAK 1 (pKi) (converted)

For each of the compounds below, state Ki.
1. COC(CN(C)C/C=C/C(=O)N1CC(COc2cc(-c3ccc(O)cc3)cc3[nH]ncc23)C1)OC
2. CN(C)C/C=C/C(=O)N1CC(COc2cc(-c3cc(F)c(O)cc3F)cc3[nH]ncc23)C1
3. C=CC(=O)N1CC[C@H](Oc2cc(-c3ccc(O)c(Cl)c3)cc3[nH]nc(SC)c23)C1
4. C=CC(=O)N1CC(F)(COc2nc(-c3ccc(O)c(Cl)c3)cc3[nH]ncc23)C1
5. CN(C)C/C=C/C(=O)N1CC(F)(C(=O)Nc2cc(-c3ccc(O)cc3)cc3[nH]ncc23)C1
6. C=CC(=O)N1CC[C@H](Oc2cc(-c3ccc(O)cc3)cc3[nH]ncc23)C[C@@H]1C
7. C=CC(=O)N1CC[C@H](Oc2cc(-c3ccc(O)c(Cl)c3)cc3[nH]ncc23)C1

Marked response:
["> 100 nM", "10 to 100 nM", "> 100 nM", "> 100 nM", "> 100 nM", "> 100 nM", "> 100 nM"]

For each of the compounds below, state Ki.
1. C=CC(=O)N1CC(F)(COc2nc(-c3ccc(O)cc3)cc3[nH]ncc23)C1
2. COC1CN(C/C=C/C(=O)N2CC(COc3cc(-c4ccc(O)cc4)cc4[nH]ncc34)C2)C1
3. C=CC(=O)N1CC[C@H](Oc2cc(-c3ccc(O)c(Cl)c3)cc3[nH]nc(C)c23)C1
4. C=CC(=O)N1CC[C@H](Oc2cc(-c3ccc(O)c(F)c3Cl)cc3[nH]ncc23)C1
5. Cc1n[nH]c2cc(-c3ccc(O)cc3)cc(OCC3CN(C(=O)/C=C/CN(C)C)C3)c12
6. COC1CCN(C/C=C/C(=O)N2CC(COc3cc(-c4ccc(O)cc4)cc4[nH]ncc34)C2)CC1
7. COC1CCCN(C/C=C/C(=O)N2CC(COc3cc(-c4ccc(O)cc4)cc4[nH]ncc34)C2)C1 (stereo not shown)
8. C=CC(=O)N1CC[C@H](Oc2cc(-c3ccc(O)cc3)cc3[nH]ncc23)C1

Marked response:
1: 10 to 100 nM; 2: > 100 nM; 3: > 100 nM; 4: > 100 nM; 5: 10 to 100 nM; 6: > 100 nM; 7: > 100 nM; 8: > 100 nM

For each of the compounds below, state Ki.
1. C=CC(=O)N1CC[C@H](Nc2cc(-c3ccc(O)cc3)cc3[nH]ncc23)[C@H](C)C1
2. C=CC(=O)N1CC[C@H](Oc2cc(-c3ccc(O)cc3)cc3[nH]nc(NC)c23)C1
3. C=CC(=O)N1CC[C@H](Oc2cc(-c3ccc(O)cc3)cc3[nH]nc(C(F)(F)F)c23)C1
4. CN(C)C/C=C/C(=O)N1CC(F)(COc2cc(-c3ccc(O)c(Cl)c3)cc3[nH]ncc23)C1

Marked response:
1. 10 to 100 nM
2. > 100 nM
3. > 100 nM
4. 0.1 to 1 nM

For each of the compounds below, state Ki.
1. C=CC(=O)N1CC[C@H](Oc2cc(-c3ccc(O)cc3)cc3[nH]ncc23)C[C@H]1C
2. CN(C)C/C=C/C(=O)N1CC(F)(COc2cc(-c3ccc(O)c(F)c3)nc3[nH]ncc23)C1
3. C=CC(=O)N1CC[C@@H](Oc2cc(-c3ccc(O)cc3)cc3[nH]ncc23)C[C@@H]1C
4. C=CC(=O)N1CCC(Oc2cc(-c3ccc(O)cc3)nc3[nH]ncc23)CC1
5. C=CC(=O)N1CC[C@H](Oc2nc(-c3ccc(O)c(Cl)c3)cc3[nH]nc(C)c23)C1
6. CN(C)C/C=C/C(=O)N1CC(C)(COc2cc(-c3ccc(O)cc3)cc3[nH]ncc23)C1

Marked response:
["> 100 nM", "> 100 nM", "> 100 nM", "> 100 nM", "10 to 100 nM", "> 100 nM"]

For each of the compounds below, state Ki.
1. C=CC(=O)N1CC(C)(COc2cc(-c3ccc(O)c(F)c3)nc3[nH]ncc23)C1
2. C=CC(=O)N1CC(CSc2cc(-c3ccc(O)cc3)cc3[nH]ncc23)C1
3. C=CC(=O)N1CCC(Oc2nc(-c3ccc(O)c(F)c3)cc3[nH]ncc23)CC1
4. C=CC(=O)N1CC(COc2nc(-c3ccc(O)c(F)c3)cc3[nH]ncc23)C1
5. C=CC(=O)N1CC[C@H](Oc2cc(-c3ccc(O)cc3)cc3[nH]nc(C)c23)C1
6. CN(C)C/C=C/C(=O)N1CCC(C)(Oc2cc(-c3ccc(O)c(Cl)c3)cc3[nH]ncc23)CC1

Marked response:
1: > 100 nM; 2: > 100 nM; 3: > 100 nM; 4: > 100 nM; 5: > 100 nM; 6: > 100 nM

* * *

I'd appreciate it if you could supply Kp values for the items below.
Assay explanation: Colon and plasma mouse pharmacokinetics
Type: in vivo
Condition context: mouse, colon tissue / plasma; male Balb/c mice, 10 mg/kg PO; 0.5, 2 and 6 hours; read-out: colon to plasma ratio (colon AUC to plasma AUC)

Below, each entry is followed by its recorded Kp result.
C=CC(=O)N1CC(C(C)(C)Oc2cc(-c3ccc(O)cc3)nc3[nH]ncc23)C1 : > 200
C=CC(=O)N1CC(C)(COc2nc(-c3ccc(O)c(F)c3)nc3[nH]ncc23)C1 : > 1250
CN(C)C/C=C/C(=O)N1CCC(C)(Oc2cc(-c3ccc(O)cc3)cc3[nH]ncc23)CC1 : > 200
CN(C)C/C=C/C(=O)N1CC(COc2cc(-c3ccc(O)cc3)cc3[nH]ncc23)C1 : > 1250
C=CC(=O)N1CC(COc2nc(-c3ccc(O)cc3)nc3[nH]ncc23)C1 : > 1250

For each of the compounds below, state Kp.
1. C=CC(=O)N1CC[C@H](COc2cc(-c3ccc(O)cc3)cc3[nH]ncc23)C1
2. CN(C)C/C=C/C(=O)N1CC(COc2cc(-c3ccc(O)c(F)c3)cc3[nH]ncc23)C1
3. CN(C)C/C=C/C(=O)N1CC(C(C)(C)Oc2cc(-c3ccc(O)c(F)c3)cc3[nH]ncc23)C1

Marked response:
> 1250
> 200
> 200

* * *

System: IL-2 stimulated pSTAT5 in Tall-1 T cells
Assay explanation: Cellular JAK3 potency assay: inhibition of IL-2 stimulated pSTAT5 in Tall-1 T cells
Type: cell-based, human
Condition context: Homo sapiens, TALL-1, IL-2 stimulated pSTAT5 in Tall-1 T cells; read-out: Tall-1 (pIC50) (converted)
I'd appreciate it if you could supply IC50 values for the items below.

CC(C)CN(C)C/C=C/C(=O)N1CC(COc2cc(-c3ccc(O)cc3)cc3[nH]ncc23)C1 [Compound 3-118] : < 31.6 nM
C=CC(=O)N1CC[C@H](Oc2cc(-c3ccc(O)cc3)cc3[nH]nc(NC)c23)C1 [Compound 1-21] : 31.6 to 200 nM
CN(C)C/C=C/C(=O)N1CC(COc2nc(-c3ccc(O)c(F)c3)cc3[nH]ncc23)C1 [Compound 3-36] : 31.6 to 200 nM
CN(C)C/C=C/C(=O)N1CC(COc2cc(-c3ccc(O)cc3)cc3[nH]ncc23)C1 [Compound 1] : 31.6 to 200 nM
C=CC(=O)N1CC[C@H](Oc2cc(-c3ccc(O)c(Cl)c3)nc3[nH]nc(C)c23)C1 [Compound 1-32] : 200 to 1000 nM
CN(C)C/C=C/C(=O)N1CC(C)(COc2cc(-c3ccc(O)cc3)cc3[nH]ncc23)C1 [Compound 3-7] : 31.6 to 200 nM
C=CC(=O)N1CC(F)(COc2cc(-c3ccc(O)cc3)nc3[nH]ncc23)C1 [Compound 3-46] : < 31.6 nM
COC1(COc2cc(-c3ccc(O)cc3)cc3[nH]ncc23)CN(C(=O)/C=C/CN(C)C)C1 [Compound 3-32] : < 31.6 nM
O=C(/C=C/CN1CCSCC1)N1CC(COc2cc(-c3ccc(O)cc3)cc3[nH]ncc23)C1 [Compound 3-130] : 31.6 to 200 nM
C=CC(=O)N1CC(C#N)(COc2nc(-c3ccc(O)cc3)cc3[nH]ncc23)C1 [Compound 3-103] : < 31.6 nM

For each of the molecules below, state IC50.
1. CN(C)C/C=C/C(=O)N1CC(F)(COc2cc(-c3ccc(O)c(Cl)c3)cc3[nH]ncc23)C1 [Compound 3-42]
2. CN(C)C/C=C/C(=O)N1CC(F)(COc2cc(-c3ccc(O)cc3)nc3[nH]ncc23)C1 [Compound 3-89]
3. C=CC(=O)N1C[C@@H](Oc2cc(-c3ccc(O)cc3)cc3[nH]ncc23)C[C@H]1C [Compound 1-11]

Marked response:
< 31.6 nM
31.6 to 200 nM
< 31.6 nM
